B1: KCNA3 (parent)
chain: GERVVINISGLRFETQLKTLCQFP

Variants of: B1
ASSAY_SUMMARY: protein stability index of a GFP-peptide fusion (GPS, HEK-293T) (PSI 1-6); higher = more stable;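 further: lentivirally expressed fusions sorted by FACS into six bins by GFP to DsRed ratio, PSI derived from sequencing read proportions per bin multiplied by bin number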
DETAILS: c terminus: a fixed tail appended
MEASURE: protein stability index

Previously resolved entries follow.
>>> result("L17A")
2.88
>>> result("V5K")
2.49
>>> result("C21M")
1.12
>>> result("G1R")
3.52
>>> result("E14H")
3.28

For each of the variants below, note its protein stability index.
1. R12P
2. I8E
3. I8D
4. E14M
5. L11P

## Output
1. 1.45
2. 3.02
3. 2.82
4. 3.03
5. 1.54

Each variant below has a recorded value; state its protein stability index.
1. F23Q
2. V5N
3. I6D
4. R3D

## Output
1.94
1.76
2.46
2.44

Batch of 3 variants: report protein stability index for each.
1. L17R
2. I6T
3. R12S

## Output
1.87
2.75
1.48

Need protein stability index for each of these variants.
1. P24N
2. V5E
3. L20M
4. V5F
5. V4H

## Output
1. 3.07
2. 1.47
3. 2.22
4. 2.05
5. 2.16
